Numbers sourced from paper PMC3562352.

Test system: T1, MntR wild-type (Bacillus subtilis, UniProt P54512 1-142)
T1 sequence: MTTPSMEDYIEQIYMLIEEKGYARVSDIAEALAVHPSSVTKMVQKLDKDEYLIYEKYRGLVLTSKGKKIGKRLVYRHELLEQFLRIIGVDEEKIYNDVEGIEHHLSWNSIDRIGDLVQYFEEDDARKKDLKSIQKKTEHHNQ
Experiment: fluorescence anisotropy
Reported property: pKd
pKd here is simply -log10 of the concentration when that concentration is written in mol/L.

stdin: Query (binder): mntH operator 21 bp (dsDNA) DNA 1: GAGTTTCCTTAAGGCAAATTG DNA 2: CAATTTGCCTTAAGGAAACTC ; field requested: pKd
stdout: 8.19
